Molecular target: human A2a receptor (Homo sapiens, UniProt P29274)
Construct: purchased Perkin-Elmer RBHA2AM400UA; host or cells: HEK293 cells, used as a membrane preparation
Sequence (P29274 whole entry): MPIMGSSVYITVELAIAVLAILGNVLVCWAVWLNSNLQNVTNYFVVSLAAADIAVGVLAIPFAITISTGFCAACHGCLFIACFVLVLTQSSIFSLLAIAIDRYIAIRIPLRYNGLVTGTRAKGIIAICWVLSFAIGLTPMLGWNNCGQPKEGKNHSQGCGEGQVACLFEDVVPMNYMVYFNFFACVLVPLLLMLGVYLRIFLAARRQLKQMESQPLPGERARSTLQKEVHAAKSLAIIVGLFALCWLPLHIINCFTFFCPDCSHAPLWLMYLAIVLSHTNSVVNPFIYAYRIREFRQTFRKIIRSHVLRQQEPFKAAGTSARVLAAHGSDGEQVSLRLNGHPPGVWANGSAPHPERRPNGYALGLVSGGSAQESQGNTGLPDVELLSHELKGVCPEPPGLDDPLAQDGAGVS
Experiment: A2a receptor competition binding assay (Scintillation Proximity)
Details: membranes from HEK293 cells expressing human A2a receptor; 0.5 nM tritiated ligand; Cheng-Prusoff; read-out: A2a Ki
In this section, each of the molecules is paired with its reported pKi.
FYI, pKi means -log10 of a concentration in mol per litre.

In [3]: df
Out[3]:
                                   molecule  measurement_name  observed_measurement
0  COc1cccc2c1nc(N)n1cc(C(=O)N3CCC4(CCCO4)CC3)nc21               pKi                  7.21
1  COc1cccc2c1nc(N)n1cc(C(=O)N3CCOC(C(F)(F)F)C3)nc21 (stereo not shown)               pKi                  7.19
2  COc1cccc2c1nc(N)n1cc(Cc3ccc(C(=O)Nc4ccccc4)cc3)nc21               pKi                  8.20

Lookup: Return reported pKi; argument: Nc1nc2c(F)cccc2c2nc(Cc3ccc(C(=O)NC4(c5ccccc5)CC4)cc3)cn12
Found: 7.40

Lookup: Quick one: pKi of COc1cccc2c1nc(N)n1cc(Cc3cccnc3N3CCN(C)CC3)nc21 ?
Found: 7.62

Lookup: State the recorded pKi for this entry: Nc1nc2c(F)cccc2c2nc(Cc3cccc(-c4ccc5nonc5c4)c3)cn12
Found: 7.92

Lookup: Value lookup for pKi; key = Nc1nc2c(F)cccc2c2nc(Cc3cccc4cccnc34)cn12
Found: 8.70

Lookup: Would you kindly share the measured pKi for COc1cccc2c1nc(N)n1cc(Cc3c(F)cccc3-c3ccc(C(F)(F)F)nc3)nc21 ?
Found: 8.62
